system: Human FXIa (Homo sapiens)
Construct: Human FXIa (Enzyme Research Laboratories) was incubated; purchased Enzyme Research Laboratories
Sequence (P03951 388-625 limits assumed): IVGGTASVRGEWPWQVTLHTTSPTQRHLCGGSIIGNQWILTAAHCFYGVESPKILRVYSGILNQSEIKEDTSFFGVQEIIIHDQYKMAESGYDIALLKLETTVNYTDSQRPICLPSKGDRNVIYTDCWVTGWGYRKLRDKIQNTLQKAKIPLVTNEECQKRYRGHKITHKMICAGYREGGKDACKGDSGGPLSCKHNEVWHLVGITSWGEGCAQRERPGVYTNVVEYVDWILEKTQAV
Sequence (P03951 19-387 partner limits assumed): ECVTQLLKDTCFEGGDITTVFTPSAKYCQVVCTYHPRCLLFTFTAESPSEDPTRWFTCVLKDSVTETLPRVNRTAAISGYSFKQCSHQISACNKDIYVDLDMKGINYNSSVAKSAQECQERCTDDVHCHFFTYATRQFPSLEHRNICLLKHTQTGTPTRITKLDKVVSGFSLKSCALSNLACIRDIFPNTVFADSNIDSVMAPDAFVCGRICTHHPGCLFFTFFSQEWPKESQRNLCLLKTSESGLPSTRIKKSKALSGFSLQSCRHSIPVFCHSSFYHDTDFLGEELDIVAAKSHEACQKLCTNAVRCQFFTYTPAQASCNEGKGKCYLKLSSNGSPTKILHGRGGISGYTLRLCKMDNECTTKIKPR
assay-info: FXIa inhibitory activity in vitro (fluorogenic substrate Z-Gly-Pro-Arg-AFC), selectivity
Assay type: biochemical
condition-label: category scale, 25° C.
Kindly state IC50 for each of the entries shown.

Study these solved cases before continuing.
compound | IC50
C[C@H](NC(=O)[C@@H]1NCc2ccccc21)C(=O)NCc1ccc2c(N)nccc2c1 | > 40 µM
CC(C)N[C@H](CCCCN1CCCCC1)C(=O)N1C[C@@H](c2ccc(F)c(F)c2)[C@H]1C(=O)NCc1ccc2[nH]cc(Cl)c2c1 | > 40 µM
C[C@H](NC(=O)[C@H](N)COCc1ccccc1)C(=O)NCc1ccc2c(N)nccc2c1 | 10 to 40 µM
CC(C)n1cc(C(=O)N[C@@H](Cc2ccc(F)c(F)c2)C(=O)NCc2ccc3c(N)nccc3c2)ccc1=O | > 40 µM

Parameter requested: IC50. Apply to each item below.
1. Nc1nccc2cc(CNC(=O)[C@@H]3C[C@@H](c4ccccc4)CN3C(=O)[C@H](N)CCc3ccccc3)ccc12
2. CC(C)[C@H](N)C(=O)N[C@H](CC1CCCC2CCCCC21)C(=O)NCc1ccc(C(=N)N)s1 (some centres unmarked)
3. CC(C)N[C@H](CCCCN1CCCCC1)C(=O)N[C@@H](Cc1c[nH]c2ccccc12)C(=O)NCc1ccc2c(N)nccc2c1
4. C[C@@H]1CCC[C@H](C)N1CC(=O)N1CCC(C(=O)NCc2ccc3c(N)nccc3c2)C1 (some centres unmarked)
5. CC(C)N[C@H](CCc1ccccc1)C(=O)N[C@@H](C)C(=O)NCc1ccc2c(N)nccc2c1
6. CC(C)N[C@H](CCc1ccccc1)C(=O)N1CC[C@H]1C(=O)NCc1cnc2[nH]cc(Cl)c2c1
7. N[C@H](CCCCN1CCC(F)(F)CC1)C(=O)N1CC[C@H]1C(=O)NCc1ccc2[nH]cc(Cl)c2c1
8. C[C@@H]1CCC[C@H](C)N1CC(=O)NC1(C(=O)NCc2ccc3c(N)nccc3c2)CCOCC1

Return:
10 to 40 µM
3 to 10 µM
3 to 10 µM
> 40 µM
3 to 10 µM
> 40 µM
> 40 µM
> 40 µM

Parameter requested: IC50. Apply to each item below.
1. CC(C)Oc1cc(C(=O)N[C@@H](Cc2ccc(F)c(F)c2)C(=O)NCc2ccc3c(N)nccc3c2)ccn1
2. Nc1nccc2cc(CNC(=O)CNC(=O)c3ccc(-c4ccncc4)cc3)ccc12

Return:
> 40 µM
> 40 µM
